biological target: Menin-MLL (Homo sapiens); construct: His-Menin (M1-L615 end); purchased BIORTUS BP9210; test: Inhibitory activity against Menin-MLL binding (fluorescence polarization); settings: fluorescence polarization; 150 nM His-Menin, 15 nM FITC-MLL; 25°C for 60 min; read-out: Menin-MLL IC50
Sequence (O00255 1-615 isoform O00255-1): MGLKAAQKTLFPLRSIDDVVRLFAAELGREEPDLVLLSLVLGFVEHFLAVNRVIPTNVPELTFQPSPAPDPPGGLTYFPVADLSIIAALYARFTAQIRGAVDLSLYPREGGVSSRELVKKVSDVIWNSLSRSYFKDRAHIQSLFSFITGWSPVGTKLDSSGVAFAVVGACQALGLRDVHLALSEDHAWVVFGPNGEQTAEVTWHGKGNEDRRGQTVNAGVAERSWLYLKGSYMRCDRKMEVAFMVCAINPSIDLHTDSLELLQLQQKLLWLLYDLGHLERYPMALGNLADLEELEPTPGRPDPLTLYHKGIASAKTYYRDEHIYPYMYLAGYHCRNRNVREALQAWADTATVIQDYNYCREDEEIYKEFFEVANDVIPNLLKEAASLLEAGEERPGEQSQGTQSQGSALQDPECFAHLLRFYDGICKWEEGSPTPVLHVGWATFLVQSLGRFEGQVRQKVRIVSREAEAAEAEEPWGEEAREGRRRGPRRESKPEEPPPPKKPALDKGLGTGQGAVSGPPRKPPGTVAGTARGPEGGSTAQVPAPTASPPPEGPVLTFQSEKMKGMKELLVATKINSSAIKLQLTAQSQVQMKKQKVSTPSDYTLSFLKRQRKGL
Recorded metric: IC50 (nM)
Your answer should be a plain number; it is taken to be in nM.

| Compound | Target under test | IC50, nM |
| --- | --- | --- |
| Cc1nc(F)c2c(-c3ccc(F)cc3C(=O)N3CCOC[C@H]3C)cc(C3CN(C(CC[C@@H]4COCCN4)C(C)C)C3)cn12 (stereo partly drawn) [Example 371] | Menin-MLL (Homo sapiens) | 4.8 |
| CCN(C(=O)c1cc(F)ccc1-c1cc(C2CN([C@H](CCCN3CCN(C)CC3)C(C)C)C2)cn2c(C)nc(F)c12)C(C)C [Example 312-2] | Menin-MLL (Homo sapiens) | 2.8 |

Now, please, on to the next compound.
Ask: Recall and state the measured IC50 for CCN(C(=O)c1cc(F)ccc1-c1cc(C2CN([C@H](CCCN3C4CC3CN(C(C)=O)C4)C(C)C)C2)cn2c(C)ncc12)C(C)C [Example 387] .
Reply: 2.5
